target-desc: Protein cereblon/Hepatocyte growth factor receptor (Homo sapiens, UniProt P08581+Q96SW2)
Sequence (P08581 25-1390 limits assumed): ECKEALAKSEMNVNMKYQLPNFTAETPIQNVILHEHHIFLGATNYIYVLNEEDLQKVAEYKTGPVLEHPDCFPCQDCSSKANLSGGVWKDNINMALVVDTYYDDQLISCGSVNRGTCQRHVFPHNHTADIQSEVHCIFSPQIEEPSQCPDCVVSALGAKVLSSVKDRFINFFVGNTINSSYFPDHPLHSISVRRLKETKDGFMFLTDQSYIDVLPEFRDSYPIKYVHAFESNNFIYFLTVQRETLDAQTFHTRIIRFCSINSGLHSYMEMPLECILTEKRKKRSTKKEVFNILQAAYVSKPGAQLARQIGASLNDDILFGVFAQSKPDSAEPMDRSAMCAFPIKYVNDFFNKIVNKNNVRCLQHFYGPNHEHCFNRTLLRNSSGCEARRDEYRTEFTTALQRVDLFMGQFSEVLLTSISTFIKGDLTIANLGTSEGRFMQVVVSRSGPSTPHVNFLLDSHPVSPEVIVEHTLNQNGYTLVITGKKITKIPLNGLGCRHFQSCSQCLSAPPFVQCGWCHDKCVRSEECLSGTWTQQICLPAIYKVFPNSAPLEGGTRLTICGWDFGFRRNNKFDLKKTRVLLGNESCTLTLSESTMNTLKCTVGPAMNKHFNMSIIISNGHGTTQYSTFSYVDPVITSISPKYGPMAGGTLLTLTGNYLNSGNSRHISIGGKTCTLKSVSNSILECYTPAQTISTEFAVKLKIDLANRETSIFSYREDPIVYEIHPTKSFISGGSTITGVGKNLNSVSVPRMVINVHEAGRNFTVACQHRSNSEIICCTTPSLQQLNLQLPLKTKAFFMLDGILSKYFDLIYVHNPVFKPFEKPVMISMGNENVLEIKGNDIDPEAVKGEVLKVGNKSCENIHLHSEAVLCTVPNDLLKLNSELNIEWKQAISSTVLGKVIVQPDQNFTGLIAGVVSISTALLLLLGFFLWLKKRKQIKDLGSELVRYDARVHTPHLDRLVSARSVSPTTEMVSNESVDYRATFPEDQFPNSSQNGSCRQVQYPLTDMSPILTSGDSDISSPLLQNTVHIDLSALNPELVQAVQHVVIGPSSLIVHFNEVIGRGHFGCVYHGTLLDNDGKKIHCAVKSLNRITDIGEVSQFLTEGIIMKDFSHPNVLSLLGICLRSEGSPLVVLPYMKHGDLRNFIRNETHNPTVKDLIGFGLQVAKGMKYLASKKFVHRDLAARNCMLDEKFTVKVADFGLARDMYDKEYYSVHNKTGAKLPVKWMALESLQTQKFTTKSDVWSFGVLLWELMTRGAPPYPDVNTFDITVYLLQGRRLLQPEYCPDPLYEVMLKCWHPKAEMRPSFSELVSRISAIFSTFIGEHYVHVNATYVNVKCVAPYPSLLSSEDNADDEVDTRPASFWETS
Sequence (Q96SW2 whole entry partner): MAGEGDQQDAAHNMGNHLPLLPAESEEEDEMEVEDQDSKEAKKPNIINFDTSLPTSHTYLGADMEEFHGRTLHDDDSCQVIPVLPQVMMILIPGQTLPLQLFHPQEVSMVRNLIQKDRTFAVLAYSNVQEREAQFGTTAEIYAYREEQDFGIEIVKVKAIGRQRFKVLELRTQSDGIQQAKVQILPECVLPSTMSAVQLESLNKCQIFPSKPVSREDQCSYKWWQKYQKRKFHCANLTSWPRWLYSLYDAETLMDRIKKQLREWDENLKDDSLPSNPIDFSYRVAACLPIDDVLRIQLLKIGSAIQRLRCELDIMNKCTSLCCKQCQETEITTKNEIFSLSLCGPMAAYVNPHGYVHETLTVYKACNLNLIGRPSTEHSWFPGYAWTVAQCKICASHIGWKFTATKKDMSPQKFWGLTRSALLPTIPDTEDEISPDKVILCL
assay-name: PROTAC activity at c-Met/CRBN in human EBC-1 cells assessed as induction of c-Met degradation at 100 nM incubated for 24 hrs by Western blotting analysis relative to control
Format: cell-based
Active and inactive are the calls of the source. The rule behind the calls is not given here.

{"columns": ["molecule", "target-desc", "Activity"],
 "data": [
  ["N#Cc1cccc(-c2ccc(=O)n(Cc3cccc(-c4ncc(OCC5CCN(C(=O)C(c6ccccc6)c6ccccc6)CC5)cn4)c3)n2)c1", "Protein cereblon/Hepatocyte growth factor receptor (Homo sapiens, UniProt P08581+Q96SW2)", "2.7%"],
  ["N#Cc1cccc(-c2ccc(=O)n(Cc3cccc(-c4ncc(OCC5CCN(C(=O)CCCCNC(=O)C6c7ccccc7-c7ccccc76)CC5)cn4)c3)n2)c1", "Protein cereblon/Hepatocyte growth factor receptor (Homo sapiens, UniProt P08581+Q96SW2)", "4.1%"],
  ["N#Cc1cccc(-c2ccc(=O)n(Cc3cccc(-c4ncc(OCC5CCN(C(=O)C[C@]67CC8CC(C[C@H](C8)C6)C7)CC5)cn4)c3)n2)c1", "Protein cereblon/Hepatocyte growth factor receptor (Homo sapiens, UniProt P08581+Q96SW2)", "1.5%"],
  ["N#Cc1cccc(-c2ccc(=O)n(Cc3cccc(-c4ncc(OCC5CCN(C(=O)C(C6CCCCC6)C6CCCCC6)CC5)cn4)c3)n2)c1", "Protein cereblon/Hepatocyte growth factor receptor (Homo sapiens, UniProt P08581+Q96SW2)", "inactive"],
  ["N#Cc1cccc(-c2ccc(=O)n(Cc3cccc(-c4ncc(OCC5CCN(C(=O)C6CC7C=CC6C7)CC5)cn4)c3)n2)c1 (stereo not drawn)", "Protein cereblon/Hepatocyte growth factor receptor (Homo sapiens, UniProt P08581+Q96SW2)", "22.4%"],
  ["COc1ccc(C(=O)N2CCN(C(=O)CN3CCC(COc4cnc(-c5cccc(Cn6nc(-c7cccc(C#N)c7)ccc6=O)c5)nc4)CC3)CC2)cc1N1CCC(=O)NC1=O", "Protein cereblon/Hepatocyte growth factor receptor (Homo sapiens, UniProt P08581+Q96SW2)", "inactive"],
  ["COc1ccc(C(=O)N2CCC3(CC2)CN(C(=O)CN2CCC(COc4cnc(-c5cccc(Cn6nc(-c7cccc(C#N)c7)ccc6=O)c5)nc4)CC2)C3)cc1N1CCC(=O)NC1=O", "Protein cereblon/Hepatocyte growth factor receptor (Homo sapiens, UniProt P08581+Q96SW2)", "37.7%"],
  ["CC(C)Cc1ccc([C@H](C)C(=O)N2CCC(COc3cnc(-c4cccc(Cn5nc(-c6cccc(C#N)c6)ccc5=O)c4)nc3)CC2)cc1", "Protein cereblon/Hepatocyte growth factor receptor (Homo sapiens, UniProt P08581+Q96SW2)", "23.3%"],
  ["CC(C)Cc1ccc([C@H](C)C(=O)NCCCCC(=O)N2CCC(COc3cnc(-c4cccc(Cn5nc(-c6cccc(C#N)c6)ccc5=O)c4)nc3)CC2)cc1", "Protein cereblon/Hepatocyte growth factor receptor (Homo sapiens, UniProt P08581+Q96SW2)", "inactive"],
  ["COc1ccc(C(=O)NCCCCCCN2CCC(COc3cnc(-c4cccc(Cn5nc(-c6cccc(C#N)c6)ccc5=O)c4)nc3)CC2)cc1N1CCC(=O)NC1=O", "Protein cereblon/Hepatocyte growth factor receptor (Homo sapiens, UniProt P08581+Q96SW2)", "inactive"],
  ["COc1ccc(C(=O)N2CCC3(CCN(C(=O)CN4CCC(COc5cnc(-c6cccc(Cn7nc(-c8cccc(C#N)c8)ccc7=O)c6)nc5)CC4)CC3)CC2)cc1N1CCC(=O)NC1=O", "Protein cereblon/Hepatocyte growth factor receptor (Homo sapiens, UniProt P08581+Q96SW2)", "90.3%"],
  ["N#Cc1cccc(-c2ccc(=O)n(Cc3cccc(-c4ncc(OCC5CCN(C(=O)C6c7ccccc7-c7ccccc76)CC5)cn4)c3)n2)c1", "Protein cereblon/Hepatocyte growth factor receptor (Homo sapiens, UniProt P08581+Q96SW2)", "13.4%"],
  ["COc1ccc(C(=O)N2CCC3(CCN(C(=O)CN4CCC(COc5cnc(-c6cccc(Cn7nc(-c8cccc(C#N)c8)ccc7=O)c6)nc5)CC4)C3)CC2)cc1N1CCC(=O)NC1=O", "Protein cereblon/Hepatocyte growth factor receptor (Homo sapiens, UniProt P08581+Q96SW2)", "74.6%"]
]}
